# TARGET_OR_TEST_SYSTEM: Tyrosine-protein kinase TXK (Homo sapiens)
# EXPERIMENTAL_PARAMETERS: at 1 µM
MEASURED_ATTRIBUTE: residual activity (%)
Give just the numeric value; % need not be written.

// worked examples, residual activity included
{"COMPOUND": "O=C(Nc1cccc(Nc2nccc(Nc3cccc(C(F)(F)F)c3)n2)c1)C1CC1", "TARGET_OR_TEST_SYSTEM": "Tyrosine-protein kinase TXK (Homo sapiens)", "VALUE_UNITS": "%", "residual activity": 60}
{"COMPOUND": "CC(=O)O/N=C1\\C(=C2\\C(=O)Nc3cc(Br)ccc32)Nc2ccccc21", "TARGET_OR_TEST_SYSTEM": "Tyrosine-protein kinase TXK (Homo sapiens)", "VALUE_UNITS": "%", "residual activity": 74}
{"COMPOUND": "Oc1ccc(Nc2nc(-c3ccc(Cl)cc3)cs2)cc1", "TARGET_OR_TEST_SYSTEM": "Tyrosine-protein kinase TXK (Homo sapiens)", "VALUE_UNITS": "%", "residual activity": 97}
{"COMPOUND": "Nc1nc(Nc2ccc(S(N)(=O)=O)cc2)nn1C(=S)Nc1c(F)cccc1F", "TARGET_OR_TEST_SYSTEM": "Tyrosine-protein kinase TXK (Homo sapiens)", "VALUE_UNITS": "%", "residual activity": 71}
{"COMPOUND": "CO[C@@H]1[C@H](N(C)C(=O)c2ccccc2)C[C@H]2O[C@]1(C)n1c3ccccc3c3c4c(c5c6ccccc6n2c5c31)C(=O)NC4", "TARGET_OR_TEST_SYSTEM": "Tyrosine-protein kinase TXK (Homo sapiens)", "VALUE_UNITS": "%", "residual activity": 82}

Q: Quote residual activity with test system Tyrosine-protein kinase TXK (Homo sapiens) for O=C1Nc2ccccc2/C1=C1/Nc2ccccc2/C1=N\OCCC(O)CO (stereo not given)
A: 31

Q: Please tell me the measured residual activity for N#CC(C#N)=C(N)/C(C#N)=C/c1ccc(O)cc1 ; system: Tyrosine-protein kinase TXK (Homo sapiens).
A: 78

Q: Lab note: Tyrosine-protein kinase TXK (Homo sapiens) assay, enter residual activity for Cn1cc(/C=C2\C(=O)Nc3ccc(S(N)(=O)=O)cc32)c2ccccc21 here
A: 75

Q: Provide the reported residual activity (system: Tyrosine-protein kinase TXK (Homo sapiens)) for c1ccc(-c2n[nH]c3c2oc2ccccc23)cc1
A: 97

Q: Print Tyrosine-protein kinase TXK (Homo sapiens) residual activity for Cn1cnc2cc3c(Nc4cccc(Br)c4)ncnc3cc21 .
A: 89

Q: Report residual activity from Tyrosine-protein kinase TXK (Homo sapiens) testing of CC(=O)c1ccc(N2CCOCC2)cc1O
A: 85

Q: Param request: residual activity | system Tyrosine-protein kinase TXK (Homo sapiens) | item C[C@@H](N)[C@H]1CC[C@H](C(=O)Nc2ccncc2)CC1
A: 100

Q: Fill in residual activity for CO[C@H]1C[C@@H]2CC[C@@H](C)[C@@](O)(O2)C(=O)C(=O)N2CCCC[C@H]2C(=O)O[C@H]([C@H](C)C[C@@H]2CC[C@@H](O)[C@H](OC)C2)CC(=O)[C@H](C)/C=C(\C)[C@@H](O)[C@@H](OC)C(=O)[C@H](C)C[C@H](C)/C=C/C=C/C=C/1C tested with Tyrosine-protein kinase TXK (Homo sapiens).
A: 109

Q: Provide residual activity, system Tyrosine-protein kinase TXK (Homo sapiens), entry Cc1cc2ncc(-c3ccccc3)nc2cc1C
A: 90

Q: Please report residual activity with Tyrosine-protein kinase TXK (Homo sapiens) for item COc1cc2ncnc(Nc3ccc(Oc4ccccc4)cc3)c2cc1OC .
A: 56

Q: Look up and report measured residual activity (Tyrosine-protein kinase TXK (Homo sapiens)) for the following compound: Cn1nc2c3c(cccc31)C(=O)c1ccccc1-2
A: 82
